test system: KM12 colon; assay: NCI tumour cell line growth inhibition, 48 h
Parameter Measured: GI50

The examples below pair each entry with its known result.
- CN1CCN(CCCn2c(=O)c3sc4ncccc4c3n3nnc(-c4ccccc4)c23)CC1: 4240 nM
- Nc1ncnc2n[nH]c(Nc3ccc(F)cc3)c12: 20300 nM
- O=C1c2cc3c(cc2-c2c1c1ccc(F)cc1c(=O)n2CCCNCCO)OCO3: 64.6 nM

// field: GI50; key: `Cc1cc(/C=C/c2ccc3cc(N(C)C)ccc3[n+]2C)c(C)n1-c1ccccc1` ; value = 158 nM

// field: GI50; key: `OCCCCCNCc1cc2cc3c(cc2c2cc(OCc4ccccc4)ccc12)OCO3` ; value = 1620 nM

// field: GI50; key: O=C1OC(O)[C@@H]2[C@H]1[C@H]1CC[C@@H]2O1 (stereo not given in full) ; value = 21500 nM

// field: GI50; key: C=C1NC(=O)C(C(C)CC)NC(=O)C2CSCC(NC(=O)CCC(=O)O)C(=O)NC(Cc3ccccc3)C(=O)NC(C)C(=O)NC(CC(C)CC)C(=O)NC(C(=O)NC(Cc3ccccc3)C(=O)N3CCCC3C(=O)N2)C(C)OC(=O)C(CO)NC(=O)C(C(O)COC)N(C)C(=O)C(C(C)C)NC(=O)C(CC(C)CC)NC1=O (stereo not given) ; value = 5.29 nM

// field: GI50; key: `COc1ccc([C@H]2[C@@H](F)C(=O)N2c2cc(OC)c(OC)c(OC)c2)cc1F` ; value = 59.6 nM

// field: GI50; key: `OCC#Cc1ccccc1C#Cc1ccccc1` ; value = 10800 nM

// field: GI50; key: `O=C(CSc1ccc(Cl)cc1)Nc1ccc(-c2nc3ccccc3s2)c(Cl)c1` ; value = 3660 nM
